Recorded values, source paper PMC6335420.

assayed system: T1, SpGpsB_(1-63) (S. pneumoniae R6, UniProt Q8DR57 1-63)
T1 construct: GpsB, Streptococcus pneumoniae R6, residues 1-63 (stop codon in place of Pro64); also called N-terminal domain of SpGpsB; wildtype SpGpsB_(1-63); source: E. coli, purified (Ni-NTA, thrombin, ammonium sulphate precipitation, gel filtration)
T1 sequence (looked up): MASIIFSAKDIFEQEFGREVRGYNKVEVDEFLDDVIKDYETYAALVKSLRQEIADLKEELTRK
assay remarks: fluorescence polarisation
experimental context: both partners purified
No end group written: not given here.
measured endpoint: pKd
Keep it numeric: pKd is minus log10 of the concentration in mol/L.

For this binder ( DSDSTILRRSRSDRKKLAQVCPI (also: TAMRA (maleimide) label, site not given here, source: E. coli, His-tagged MBP fusion purified (Ni-NTA), labelled, TEV-cleaved, ultrafiltration) [SpPBP2a_(23-45), TAMRA-labelled] ), measured pKd is 4.10
